# Test system: E. coli
# Format: cell-based
# CONDITION_DESCRIPTION: with 10^9 human RBC/ml; Table 2
# Description: Peptide variants of D-CONGA (SEQ ID NO: 1) were tested for activity against E. coli, K. pneumoniae, and S. aureus. Minimum Inhibitory Concentrations (MIC) were measured in 96-well plates by broth dilution. […] Hemolysis was measured by incubating 1×10^8 human RBCs with serially diluted peptide for 30 minutes followed by centrifugation of the cells and measurements of the released hemoglobin in the supernatant by absorbance at 410 nm. […]
Bridge positions count the residues as written; N and C are the ends. Square brackets hold non-standard residues; d marks the D form. Peptide text beside a SMILES is read from it.
OBSERVABLE: MIC, E. coli, 10^9 cells/ml RBC (μM)
One number for each entry, in μM.

So for CC(C)C[C@@H]1NC(=O)[C@H](CCCNC(=N)N)NC(=O)[C@H](CCCNC(=N)N)NC(=O)[C@H](C)NC(=O)[C@H](Cc2c[nH]c3ccccc23)NC(=O)[C@H](CCCNC(=N)N)NC(=O)[C@H](CCCNC(=N)N)NC(=O)CC[C@@H](C(N)=O)NC(=O)[C@H](CCCNC(=N)N)NC(=O)[C@H](CCCNC(=N)N)NC(=O)[C@H](Cc2ccccc2)NC(=O)[C@H](C)NC(=O)[C@H](Cc2ccccc2)NC(=O)[C@H](C)NC1=O [CYCLIZED-L-CONGA-E] (RRWARRLAFAFRRE-NH2; lactam N-14) , the logged MIC, E. coli, 10^9 cells/ml RBC turned out to be 30

New cases:
So for CC(C)C[C@@H](NC(=O)[C@@H](CCCNC(=N)N)NC(=O)[C@@H](CCCNC(=N)N)NC(=O)[C@@H](C)NC(=O)[C@@H](Cc1c[nH]c2ccccc12)NC(=O)[C@@H](CCCNC(=N)N)NC(=O)[C@H](N)CCCNC(=N)N)C(=O)N[C@H](C)C(=O)N[C@H](Cc1ccccc1)C(=O)N[C@H](C)C(=O)N[C@H](Cc1ccccc1)C(=O)N[C@H](CCCNC(=N)N)C(N)=O [D-CONGA-ΔR13, rrwarrlafafr (All D)] (H-[dR][dR][dW][dA][dR][dR][dL][dA][dF][dA][dF][dR]-NH2) , the logged MIC, E. coli, 10^9 cells/ml RBC turned out to be 0.6

====

# Test system: E. coli
# Assay type: cell-based
# CONDITION_DESCRIPTION: with 10^9 human RBC/ml; Table 2
Square brackets hold non-standard residues; d marks the D form. Peptide text beside a SMILES is read from it.
OBSERVABLE: MIC, E. coli, 10^9 cells/ml RBC

So for CC(C)C[C@@H](NC(=O)[C@@H](CCCNC(=N)N)NC(=O)[C@@H](CCCNC(=N)N)NC(=O)[C@@H](Cc1c[nH]c2ccccc12)NC(=O)[C@@H](CCCNC(=N)N)NC(=O)[C@H](N)CCCNC(=N)N)C(=O)N[C@H](C)C(=O)N[C@H](Cc1ccccc1)C(=O)N[C@H](C)C(=O)N[C@H](Cc1ccccc1)C(=O)N[C@H](CCCNC(=N)N)C(=O)N[C@H](CCCNC(=N)N)C(N)=O [D-CONGA-ΔA4, rrwrrlafafrr (All D)] (H-[dR][dR][dW][dR][dR][dL][dA][dF][dA][dF][dR][dR]-NH2) , the logged MIC, E. coli, 10^9 cells/ml RBC turned out to be 2.8 μM

====

# Test system: Pseudomonas aeruginosa (CF mucoid and non-mucoid)
# ASSAY_DETAILS: Broth dilution MIC against P. aeruginosa isolates from cystic fibrosis patients
# Assay type: cell-based
# CONDITION_DESCRIPTION: isolate PA (mucoid)
OBSERVABLE: MIC (µM)
Give bare numbers, in µM.

Dear reader, for each entry below, please note its MIC.
1. CO/N=C(\C(=O)N[C@@H]1C(=O)N2C(C(=O)O)=C(CSc3nc(=O)c(O)nn3C)CS[C@H]12)c1csc(N)n1
2. C[C@@H](O)[C@H]1C(=O)N2C(C(=O)O)=C(S[C@@H]3CN[C@H](C(=O)N(C)C)C3)[C@H](C)[C@H]12
3. CC(C)(O/N=C(\C(=O)N[C@@H]1C(=O)N2C(C(=O)[O-])=C(C[n+]3ccccc3)CS[C@H]12)c1csc(N)n1)C(=O)O

137.2
13.3
115.9

====

# Test system: S. aureus
# Format: cell-based
# CONDITION_DESCRIPTION: no RBC; Table 2
# Description: Peptide variants of D-CONGA (SEQ ID NO: 1) were tested for activity against E. coli, K. pneumoniae, and S. aureus. Minimum Inhibitory Concentrations (MIC) were measured in 96-well plates by broth dilution. […] Hemolysis was measured by incubating 1×10^8 human RBCs with serially diluted peptide for 30 minutes followed by centrifugation of the cells and measurements of the released hemoglobin in the supernatant by absorbance at 410 nm. […]
Square brackets hold non-standard residues; d marks the D form. Peptide text beside a SMILES is read from it.
OBSERVABLE: MIC, S. aureus, No RBC (µM)
Give bare numbers, in µM.

Considering CC(C)C[C@@H](NC(=O)[C@@H](CCCNC(=N)N)NC(=O)[C@@H](CCCNC(=N)N)NC(=O)[C@@H](C)NC(=O)[C@@H](Cc1c[nH]c2ccccc12)NC(=O)[C@@H](CCCNC(=N)N)NC(=O)[C@H](N)CCCNC(=N)N)C(=O)N[C@H](C)C(=O)N[C@H](Cc1ccccc1)C(=O)N[C@H](Cc1ccccc1)C(=O)N[C@H](CCCNC(=N)N)C(=O)N[C@H](CCCNC(=N)N)C(N)=O [D-CONGA-ΔA10, rrwarrlaffrr (All D)] (H-[dR][dR][dW][dA][dR][dR][dL][dA][dF][dF][dR][dR]-NH2) , its MIC, S. aureus, No RBC with S. aureus was recorded as 24

Could you now look at the following molecule, please?
Considering CC(C)C[C@@H]1NC(=O)[C@H](CCCNC(=N)N)NC(=O)[C@H](CCCNC(=N)N)NC(=O)[C@H](C)NC(=O)[C@H](Cc2c[nH]c3ccccc23)NC(=O)[C@H](CCCNC(=N)N)NC(=O)[C@H](CCCNC(=N)N)NC(=O)[C@H](CCCNC(=N)N)NC(=O)[C@H](CCCNC(=N)N)NC(=O)[C@H](Cc2ccccc2)NC(=O)[C@H](C)NC(=O)[C@H](Cc2ccccc2)NC(=O)[C@H](C)NC1=O [CYCLIZED-L-CONGA-OH] (cyclo(RRWARRLAFAFRR)) , its MIC, S. aureus, No RBC with S. aureus was recorded as 20

====

# Tested on: E. coli
# Type: cell-based
# CONDITION_DESCRIPTION: with 10^9 human RBC/ml; Table 2
Square brackets hold non-standard residues; d marks the D form. Peptide text beside a SMILES is read from it.
Provide the recorded MIC, E. coli, 10^9 cells/ml RBC for the entries that follow.
Numbers only, in μM.

So for CC(C)C[C@@H](NC(=O)[C@@H](CCCNC(=N)N)NC(=O)[C@@H](CCCNC(=N)N)NC(=O)[C@@H](C)NC(=O)[C@@H](Cc1c[nH]c2ccccc12)NC(=O)[C@@H](CCCNC(=N)N)NC(=O)[C@H](N)CCCNC(=N)N)C(=O)N[C@H](C)C(=O)N[C@H](Cc1ccccc1)C(=O)N[C@H](C)C(=O)N[C@H](Cc1ccccc1)C(=O)N[C@H](CCCNC(=N)N)C(=O)N[C@H](CCCNC(=N)N)C(N)=O [D-CONGA, rrwarrlafafrr (All D), reference compound] (H-[dR][dR][dW][dA][dR][dR][dL][dA][dF][dA][dF][dR][dR]-NH2) , the logged MIC, E. coli, 10^9 cells/ml RBC turned out to be 0.8

Dear reader, for each entry below, please note its MIC, E. coli, 10^9 cells/ml RBC.
1. CC(C)C[C@@H](NC(=O)[C@@H](CCCNC(=N)N)NC(=O)[C@@H](CCCNC(=N)N)NC(=O)[C@@H](C)NC(=O)[C@@H](Cc1c[nH]c2ccccc12)NC(=O)[C@@H](CCCNC(=N)N)NC(=O)[C@H](N)CCCNC(=N)N)C(=O)N[C@H](C)C(=O)N[C@H](Cc1ccccc1)C(=O)N[C@H](Cc1ccccc1)C(=O)N[C@H](CCCNC(=N)N)C(=O)N[C@H](CCCNC(=N)N)C(N)=O [D-CONGA-ΔA10, rrwarrlaffrr (All D)] (H-[dR][dR][dW][dA][dR][dR][dL][dA][dF][dF][dR][dR]-NH2)
2. CC(C)C[C@@H](NC(=O)[C@@H](CCCNC(=N)N)NC(=O)[C@H](CCCNC(=N)N)NC(=O)[C@@H](C)NC(=O)[C@@H](Cc1c[nH]c2ccccc12)NC(=O)[C@@H](CCCNC(=N)N)NC(=O)[C@H](N)CCCNC(=N)N)C(=O)N[C@H](C)C(=O)N[C@H](Cc1ccccc1)C(=O)N[C@@H](C)C(=O)N[C@H](Cc1ccccc1)C(=O)N[C@H](CCCNC(=N)N)C(=O)N[C@H](CCCNC(=N)N)C(N)=O [D-CONGA-L(R5, A10), rrwaRrlafAfrr] (H-[dR][dR][dW][dA]R[dR][dL][dA][dF]A[dF][dR][dR]-NH2)
3. CC(C)C[C@@H](NC(=O)[C@@H](CCCNC(=N)N)NC(=O)[C@H](N)CCCNC(=N)N)C(=O)N[C@H](C)C(=O)N[C@H](Cc1ccccc1)C(=O)N[C@H](C)C(=O)N[C@H](Cc1ccccc1)C(=O)N[C@H](Cc1c[nH]c2ccccc12)C(=O)N[C@H](C)C(=O)N[C@H](CCCNC(=N)N)C(=O)N[C@H](CCCNC(=N)N)C(=O)N[C@H](CCCNC(=N)N)C(=O)N[C@H](CCCNC(=N)N)C(N)=O [D-CONGA-FLIP, rrlafafwarrrr (All D)] (H-[dR][dR][dL][dA][dF][dA][dF][dW][dA][dR][dR][dR][dR]-NH2)
4. CC(C)C[C@@H](NC(=O)CNC(=O)[C@@H](CCCNC(=N)N)NC(=O)[C@@H](CCCNC(=N)N)NC(=O)[C@@H](C)NC(=O)[C@@H](Cc1c[nH]c2ccccc12)NC(=O)[C@@H](CCCNC(=N)N)NC(=O)[C@H](N)CCCNC(=N)N)C(=O)N[C@H](C)C(=O)N[C@H](Cc1ccccc1)C(=O)N[C@H](C)C(=O)N[C@H](Cc1ccccc1)C(=O)N[C@H](CCCNC(=N)N)C(=O)N[C@H](CCCNC(=N)N)C(N)=O [D-CONGA-G7, rrwarrglafafrr (All D)] (H-[dR][dR][dW][dA][dR][dR]G[dL][dA][dF][dA][dF][dR][dR]-NH2)

1: 1.3; 2: 1.4; 3: 1.5; 4: 1.4
